Consider the following compounds and their measured Ratio* (BRG1 IC50 (μM) divided by BRM IC50 (μM)) readings.
Molecular target: BRM (Homo sapiens)
Construct: made in house; host or cells: High Five insect cells
Sequence (P51531 whole entry): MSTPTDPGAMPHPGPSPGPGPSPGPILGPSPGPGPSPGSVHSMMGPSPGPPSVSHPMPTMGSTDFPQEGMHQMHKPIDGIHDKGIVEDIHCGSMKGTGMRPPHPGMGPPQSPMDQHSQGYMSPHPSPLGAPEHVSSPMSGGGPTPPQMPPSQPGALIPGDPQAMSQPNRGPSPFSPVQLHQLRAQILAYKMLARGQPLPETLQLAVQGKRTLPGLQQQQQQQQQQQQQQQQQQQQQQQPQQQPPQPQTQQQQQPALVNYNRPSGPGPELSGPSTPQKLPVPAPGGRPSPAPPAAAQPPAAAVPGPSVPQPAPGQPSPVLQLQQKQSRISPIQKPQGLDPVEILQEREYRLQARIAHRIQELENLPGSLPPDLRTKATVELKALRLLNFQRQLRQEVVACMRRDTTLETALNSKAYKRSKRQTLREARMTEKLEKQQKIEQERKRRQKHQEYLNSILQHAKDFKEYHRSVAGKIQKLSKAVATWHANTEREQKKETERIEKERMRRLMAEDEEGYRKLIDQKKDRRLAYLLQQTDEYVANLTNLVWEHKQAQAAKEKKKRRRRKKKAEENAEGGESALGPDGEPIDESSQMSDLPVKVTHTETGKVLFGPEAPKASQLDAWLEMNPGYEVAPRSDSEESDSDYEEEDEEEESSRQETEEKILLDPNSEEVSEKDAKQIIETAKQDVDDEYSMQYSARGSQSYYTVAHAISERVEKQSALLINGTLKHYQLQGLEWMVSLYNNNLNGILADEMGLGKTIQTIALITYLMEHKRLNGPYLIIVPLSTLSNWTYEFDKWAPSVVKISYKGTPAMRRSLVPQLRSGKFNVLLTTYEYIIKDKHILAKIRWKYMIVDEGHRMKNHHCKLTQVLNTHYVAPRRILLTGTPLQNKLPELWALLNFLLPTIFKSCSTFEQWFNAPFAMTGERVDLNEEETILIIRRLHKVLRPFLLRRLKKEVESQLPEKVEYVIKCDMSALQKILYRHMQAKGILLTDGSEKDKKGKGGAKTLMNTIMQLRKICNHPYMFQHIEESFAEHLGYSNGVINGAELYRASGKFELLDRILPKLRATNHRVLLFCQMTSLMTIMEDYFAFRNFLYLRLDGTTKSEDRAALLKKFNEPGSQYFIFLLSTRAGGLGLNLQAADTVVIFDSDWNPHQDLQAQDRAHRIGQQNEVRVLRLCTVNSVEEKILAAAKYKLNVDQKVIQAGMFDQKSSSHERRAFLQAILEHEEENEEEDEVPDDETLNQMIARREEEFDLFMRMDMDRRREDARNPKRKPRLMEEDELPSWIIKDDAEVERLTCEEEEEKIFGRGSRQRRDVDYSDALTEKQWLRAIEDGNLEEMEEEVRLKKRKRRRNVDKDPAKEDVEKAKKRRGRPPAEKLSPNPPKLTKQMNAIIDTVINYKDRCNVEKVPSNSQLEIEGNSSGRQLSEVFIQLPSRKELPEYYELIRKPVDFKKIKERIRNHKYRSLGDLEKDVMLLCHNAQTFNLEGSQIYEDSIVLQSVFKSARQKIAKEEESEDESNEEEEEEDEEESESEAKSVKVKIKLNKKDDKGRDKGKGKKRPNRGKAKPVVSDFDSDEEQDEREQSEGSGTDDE
Test: ATPase catalytic activity of BRM, ADP-Glo in vitro biochemical assay
Details: selectivity ratio BRG1 IC50 / BRM IC50
quantityKind: Ratio* (BRG1 IC50 (μM) divided by BRM IC50 (μM))

{"columns": ["smilesCode", "val"],
 "data": [
  ["[2H]C([2H])([2H])N(c1cccc(-c2ccc3cnc(CNC(=O)c4ccc5c(c4)S(=O)(=O)CCOC5)cc3n2)n1)C([2H])([2H])[2H]", 9.47],
  ["CO[C@H](C)c1cccc(-c2ccc3cnc(CNC(=O)c4ccc5c(c4)S(=O)(=O)CCOC5)cc3n2)n1", 11.38],
  ["Cc1ccc(C(=O)NCc2cc3nc(-c4cncc(C5CC5)n4)ccc3cn2)cc1S(=O)(=O)N(C)C", 17.67],
  ["CO[C@@H](C)CN(C)c1cccc(-c2ccc3cnc(CNC(=O)c4ccc5c(c4)S(=O)(=O)CCOC5)cc3n2)n1", 19.39],
  ["CN1CCOc2c(-c3ccc4cnc(CNC(=O)c5ccc6c(c5)S(=O)(=O)CCOC6)cc4n3)ccnc21", 5.63],
  ["CN1CCc2c(-c3ccc4cnc(CNC(=O)c5ccc6c(c5)S(=O)(=O)CCOC6)cc4n3)cccc21", 14.01],
  ["O=C(NCc1cc2nc(-c3cccc(C4CC4)n3)ccc2nn1)c1ccc2c(c1)S(=O)(=O)CCOC2", 19.26],
  ["O=C(NCc1cc2nc(-c3ccnc([C@@H]4CC4(F)F)n3)ccc2cn1)c1ccc2c(c1)S(=O)(=O)CCOC2", 9.79],
  ["CCO[C@@H]1CCOc2c(-c3ccc4cnc(CNC(=O)c5ccc6c(c5)S(=O)(=O)CCOC6)cc4n3)cccc21", 6.14],
  ["C[C@H]1COCCN1c1cccc(-c2ccc3cnc(CNC(=O)c4ccc5c(c4)S(=O)(=O)CCOC5)cc3n2)n1", 7.72],
  ["COCCN1CCOc2c(-c3ccc4cnc(CNC(=O)c5ccc(Cl)c(S(C)(=O)=O)c5)cc4n3)cccc21", 15.63],
  ["CS(=O)(=O)c1cc(F)cc(C(=O)NCc2cc3nc(-c4cncc(C5CC5)n4)ccc3cn2)c1", 12.98],
  ["CO[C@@H](C)c1cccc(-c2ccc3cnc(CNC(=O)c4ccc5c(c4)S(=O)(=O)CCOC5)cc3n2)n1", 9.44],
  ["O=C(NCc1cc2nc(-c3cncc(C4CC4)n3)ccc2cn1)c1ccc2c(c1)S(=O)(=O)CCOC2", 9.32]
]}
